target system: UniProt P08172
Sequence (P08172 1-466): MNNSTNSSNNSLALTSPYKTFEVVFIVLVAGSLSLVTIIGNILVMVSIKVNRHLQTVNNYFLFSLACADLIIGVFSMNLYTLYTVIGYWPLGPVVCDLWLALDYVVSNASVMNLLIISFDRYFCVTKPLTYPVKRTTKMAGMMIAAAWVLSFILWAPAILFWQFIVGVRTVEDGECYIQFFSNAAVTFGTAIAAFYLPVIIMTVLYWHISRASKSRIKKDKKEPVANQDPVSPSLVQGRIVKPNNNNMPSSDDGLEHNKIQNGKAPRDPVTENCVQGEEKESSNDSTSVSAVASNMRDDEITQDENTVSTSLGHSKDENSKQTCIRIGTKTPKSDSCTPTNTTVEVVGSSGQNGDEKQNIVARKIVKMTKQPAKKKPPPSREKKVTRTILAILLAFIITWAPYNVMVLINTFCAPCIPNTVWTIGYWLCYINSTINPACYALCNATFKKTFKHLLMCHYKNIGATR
assay name: SPA GTP (GTPgS) binding curve shift assay, M2
Type: biochemical
experimental setup: M2; MK-4710 concentration 370 nM
Description: Membranes were prepared for GTPgS binding assays from CHO-K1 cells stably expressing human M2 or human M4 receptors. Cells were grown in 5-layer cell culture flasks. Cells were washed with 50 mL of PBS and then dissociated with 0.05% trypsin. […] According to Promega guidelines, membrane protein concentration was determined by BCA protein assay (Promega, Madison, WI). […] Raw data for all assays was transmitted directly from plate readers into the Beacon database for processing. […]
measured metric: Emax at […]

Returns the measured Emax at […] for the input compound. Input: CCCCCCCOc1nsnc1C1=CCCCN1C
61.4%

Returns the measured Emax at […] for the input compound. Input: CCCCCOc1nsnc1C1=CCCCN1C
59.1%

Returns the measured Emax at […] for the input compound. Input: CCCCCCOc1nsnc1C1=CCCN(C)C1 [xanomeline, reference compound]
55.5%

Returns the measured Emax at […] for the input compound. Input: CC1OC2(CS1)CN1CCC2CC1 (stereo not shown) [cevimeline, Cevimeline, reference compound]
39.3%

====

target system: human M3 receptor (Homo sapiens, UniProt P20309)
Construct: expressed in transfected cells
Sequence (P20309 whole entry): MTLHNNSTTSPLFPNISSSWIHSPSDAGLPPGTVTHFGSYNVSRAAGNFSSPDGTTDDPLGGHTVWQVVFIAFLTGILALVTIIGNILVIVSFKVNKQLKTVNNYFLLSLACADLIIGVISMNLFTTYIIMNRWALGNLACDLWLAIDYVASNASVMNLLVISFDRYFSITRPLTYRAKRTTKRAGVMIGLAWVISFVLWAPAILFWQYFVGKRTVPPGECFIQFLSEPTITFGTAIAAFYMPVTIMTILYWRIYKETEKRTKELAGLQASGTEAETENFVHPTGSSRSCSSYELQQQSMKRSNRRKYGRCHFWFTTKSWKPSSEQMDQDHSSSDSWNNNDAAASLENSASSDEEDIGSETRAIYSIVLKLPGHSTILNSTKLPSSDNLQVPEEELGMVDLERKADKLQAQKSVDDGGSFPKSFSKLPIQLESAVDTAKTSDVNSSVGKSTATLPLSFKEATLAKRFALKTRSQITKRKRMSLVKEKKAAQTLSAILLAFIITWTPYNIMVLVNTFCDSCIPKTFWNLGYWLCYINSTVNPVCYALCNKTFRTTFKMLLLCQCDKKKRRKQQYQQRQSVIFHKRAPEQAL
assay name: HTRF IP-One curve shift assay, M3
Assay type: cell-based
experimental setup: MK-4710 concentration 123 nM, read-out: Emax
Description: HTRF IP-One assays were performed using frozen cell aliquots prepared from CHO-K1 cell lines stably expressing human M1, M3, or M5 receptors. Cells were frozen following typical cell freezing protocols. […] Six μL of IP-1 detection reagents (IP-One Gq HTRF kit, Cisbio Cat #62IPAPEJ) were dispensed to the cells. […] Then, plates were read on an Envision plate reader following the Cisbio guidelines. Raw data for all assays was transmitted directly from plate readers into the Beacon database for processing. […]
Would you kindly list Emax for each of these compounds?
Response body: numeric value in %, unit text excluded.

Returns the measured Emax for the input compound. Input: CCCCCCOc1nsnc1C1=CCCN(C)C1 [xanomeline, reference compound]
90.3

Returns the measured Emax for the input compound. Input: CC1OC2(CS1)CN1CCC2CC1 (stereo not shown) [cevimeline, Cevimeline, reference compound]
137

Returns the measured Emax for the input compound. Input: CCCCCCCOc1nsnc1C1=CCCCN1C [KTX-593]
66.6

Returns the measured Emax for the input compound. Input: CCCCCOc1nsnc1C1=CCCCN1C [KTX-517]
48.3
